protocolNotes: BSK_hDFCGF_Proliferation: Cell Proliferation Assessment in the BioMAP Diversity Plus: hDFCGF Assay (AID 2283059);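 further: curves fitted for both rise and fall of signal versus DMSO baseline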
runParameters: primary human foreskin fibroblasts
The source made the active and inactive calls. How the source made its calls: active means hit-call score of the fitted dose curve at least 0.9, where 1 is the maximum; inactive means score below 0.9.
Possible outcomes: active, inactive

1. Cc1ccc(S(=O)(=O)O)cc1C
inactive
2. Clc1nc(Cl)c(Cl)c(Cl)c1Cl
inactive
3. CCCCC(CC)COC(=O)c1ccc(C(=O)OCC(CC)CCCC)cc1 (configuration not stated)
inactive
4. O=C1CCC(N2C(=O)c3ccccc3C2=O)C(=O)N1 (configuration not stated)
inactive
5. Nc1ccc(Nc2ccccc2)cc1
active
6. CC(C)CCCCCCOC(=O)c1ccc(C(=O)OCCCCCCC(C)C)c(C(=O)OCCCCCCC(C)C)c1
inactive
7. C=CC(=C)CCC=C(C)C
inactive
8. O=P(OC(CCl)CCl)(OC(CCl)CCl)OC(CCl)CCl
active
9. CC(=O)OC[C@H]1O[C@@](COC(C)=O)(O[C@H]2O[C@H](COC(C)=O)[C@@H](OC(C)=O)[C@H](OC(C)=O)[C@H]2OC(C)=O)[C@@H](OC(C)=O)[C@@H]1OC(C)=O
inactive
10. O=C(O)c1cccc(N(Cc2cccnc2)c2ccc(OC(F)F)c(OC(F)F)c2)c1
inactive
11. CCOC(=O)COc1ccc2c(c1)CC(NCC(O)c1cccc(Cl)c1)CC2 (configuration not stated)
active
12. Fc1ccccc1[C@@H](F)COC1CCC(Nc2ncnc3[nH]ncc23)CC1 (some centres not stated)
active

---

Read-out: Cytochrome P450 3A4 (Homo sapiens) (UniProt P08684)
Sequence (P08684 whole entry, looked up): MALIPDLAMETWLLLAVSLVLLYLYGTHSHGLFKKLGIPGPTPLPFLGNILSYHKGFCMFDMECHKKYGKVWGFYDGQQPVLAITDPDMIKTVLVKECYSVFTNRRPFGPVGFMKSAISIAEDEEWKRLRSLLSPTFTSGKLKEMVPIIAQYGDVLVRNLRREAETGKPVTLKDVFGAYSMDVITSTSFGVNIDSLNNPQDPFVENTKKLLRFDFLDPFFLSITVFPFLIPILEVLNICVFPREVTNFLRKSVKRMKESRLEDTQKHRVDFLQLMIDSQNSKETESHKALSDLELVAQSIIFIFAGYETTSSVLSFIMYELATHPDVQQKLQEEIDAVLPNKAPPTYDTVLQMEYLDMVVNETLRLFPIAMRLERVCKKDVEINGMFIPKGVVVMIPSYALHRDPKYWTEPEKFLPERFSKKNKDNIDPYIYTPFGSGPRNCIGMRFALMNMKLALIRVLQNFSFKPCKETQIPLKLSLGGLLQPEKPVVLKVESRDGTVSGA
protocolNotes: LTEA_HepaRG_CYP3A4: Life Technologies and Expression Analysis (LTEA) Assay for CYP3A4 using HepaRG (AID 2283487)
runParameters: mRNA level, 48 h; actives raise or lower the signal
Activity calls are given as the source filed them. How the source made its calls: active means hit-call score of the fitted dose curve at least 0.9, where 1 is the maximum; inactive means score below 0.9.
Possible outcomes: label 1 (active), label 0 (inactive)

1. CCOc1cccc(-n2cc(C(=O)N3CCN(c4cc(C(=O)O)c5ccccc5c4)CC3)nc2-c2ccc(C)cc2)c1
label 1
2. CC(C)CCCCCCOC(=O)c1ccc(C(=O)OCCCCCCC(C)C)c(C(=O)OCCCCCCC(C)C)c1
label 0
3. C=CC(=C)CCC=C(C)C
label 0
4. COc1ccc(-n2nc(C(F)F)cc2-c2ccc(S(C)=O)cc2)cc1 (stereo unspecified)
label 1
5. COCCOCCOCCOC
label 0
6. CN(C)c1ccc(Cc2ccc(N(C)C)cc2)cc1
label 1
7. O=C(O)CC(O)C(=O)O (stereo unspecified)
label 0
8. CCCC(=O)OCC
label 0
9. O=P(OC(CCl)CCl)(OC(CCl)CCl)OC(CCl)CCl
label 1
10. O=C(OC[C@H]1O[C@@H](OC(=O)c2cc(O)c(O)c(OC(=O)c3cc(O)c(O)c(O)c3)c2)[C@H](OC(=O)c2cc(O)c(O)c(OC(=O)c3cc(O)c(O)c(O)c3)c2)[C@@H](OC(=O)c2cc(O)c(O)c(OC(=O)c3cc(O)c(O)c(O)c3)c2)[C@@H]1OC(=O)c1cc(O)c(O)c(OC(=O)c2cc(O)c(O)c(O)c2)c1)c1cc(O)c(O)c(OC(=O)c2cc(O)c(O)c(O)c2)c1
label 1
11. O=c1n(CC2CO2)c(=O)n(CC2CO2)c(=O)n1CC1CO1 (stereo unspecified)
label 1
12. CCCCCCc1ccc(O)cc1O
label 0
13. O=C(O)c1cccc(N(Cc2cccnc2)c2ccc(OC(F)F)c(OC(F)F)c2)c1
label 1
14. CN(C)c1ccc(N=NS(=O)(=O)O)cc1
label 0
15. C1N2CN3CN1CN(C2)C3
label 0
16. COc1cccc(-c2ccc(/C=C\CN3CCCCCC3)cc2Cl)c1
label 1
17. CCCCC(CC)COC(=O)CCCCCCCCC(=O)OCC(CC)CCCC (stereo unspecified)
label 0
18. C1=CCCC=CCCC=CCC1
label 0
19. CCc1cc(SCc2sc(-c3ccc(C(F)(F)F)cc3)nc2CN2CCN(c3ccc(OC)cc3)CC2)ccc1OCC(=O)O
label 1
20. C[C@](N)(Cc1ccc(O)c(O)c1)C(=O)O
label 0
21. CCn1nc(Cc2ccccc2)cc1C1CCN(C[C@H]2C[C@H](N(C)[C@@H](C(=O)O)C(C)C)C[C@@H]2c2cccc(F)c2)CC1
label 0
